Attribution: paper PMC8769072

- target.or.system: KPNA4 ARM (importin subunit alpha-3, armadillo repeat domain) (human) (UniProt O00629)
- Sequence (O00629 whole entry, the tested form may be a part): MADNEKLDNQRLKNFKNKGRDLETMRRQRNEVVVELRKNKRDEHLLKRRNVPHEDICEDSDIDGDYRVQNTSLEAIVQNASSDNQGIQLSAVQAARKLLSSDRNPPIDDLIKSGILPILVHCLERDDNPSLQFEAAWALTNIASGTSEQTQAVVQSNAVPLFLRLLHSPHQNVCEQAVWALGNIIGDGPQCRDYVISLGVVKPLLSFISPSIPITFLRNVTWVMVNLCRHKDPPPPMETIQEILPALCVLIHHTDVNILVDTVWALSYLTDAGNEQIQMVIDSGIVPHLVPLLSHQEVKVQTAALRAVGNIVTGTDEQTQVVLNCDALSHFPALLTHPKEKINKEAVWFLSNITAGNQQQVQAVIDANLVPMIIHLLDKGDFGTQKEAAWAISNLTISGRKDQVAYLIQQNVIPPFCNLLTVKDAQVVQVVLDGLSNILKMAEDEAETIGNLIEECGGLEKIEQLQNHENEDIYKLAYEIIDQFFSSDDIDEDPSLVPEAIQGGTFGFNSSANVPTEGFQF
- assay: fluorescence polarisation; competition: unlabelled peptide in serial dilution against KPNA4 ARM (master mix at four times the KD) with the probe FITC-Myc(320-328), probe of the major pocket; 50 mM KPO4 pH 7.5; Ki calculated from IC50
Where no end group is shown, it is not given here.
IC50 under 2000 nM gets met, anything at or over 2000 nM gets not met.

DLKRRLDSITSSQSSA-NH2 [KDR 958-973 peptide] ... not met
EDSIEPPHKRLCLSSE-NH2 [DMTF1 44-59 peptide] ... met
IPEKKQRLEEATTICL-NH2 [AFF2 864-879 peptide] ... not met
VEPETKRLKLAASEDH-NH2 [ZRANB3 571-586 peptide] ... met
Ac-YKCRRQRQDQTLELVGL-NH2 [NKX2-5 192-207 peptide, K194R] ... not met
Ac-YKCKRQRQDQTLELVGL-NH2 [NKX2-5 192-207 peptide, wild type] ... not met
ERENPSKRSRIERDID-NH2 [CTDSPL2 64-79 peptide] ... met
DHQFPAKRPRLSEPQG-NH2 [HJURP 675-690 peptide] ... met
